- Test Target: human melanocortin-1 receptor (human) (UniProt Q01726)
- Sequence (Q01726 whole entry): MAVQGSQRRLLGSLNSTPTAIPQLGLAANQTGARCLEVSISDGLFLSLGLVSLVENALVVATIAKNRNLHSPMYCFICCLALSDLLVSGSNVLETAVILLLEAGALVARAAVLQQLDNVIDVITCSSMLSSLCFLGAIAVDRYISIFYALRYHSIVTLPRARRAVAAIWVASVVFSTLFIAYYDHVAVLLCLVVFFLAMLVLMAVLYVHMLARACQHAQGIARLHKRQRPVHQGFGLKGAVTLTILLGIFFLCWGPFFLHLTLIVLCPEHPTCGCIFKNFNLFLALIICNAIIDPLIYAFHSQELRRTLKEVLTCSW
- Test Protocol: cell-based or functional assay
Bridge positions count the residues as written; N and C are the ends. Square brackets hold non-standard residues; d marks the D form. Nle = CCCC[C@H](N)C(=O)O; Dab = NCC[C@H](N)C(=O)O; Dap = NC[C@H](N)C(=O)O
Outcome Measure: MC-1 Emax (average; cAMP HBL) (%)
# number only, unit % dropped from output

-- ask Find the recorded MC-1 Emax (average; cAMP HBL) belonging to Ac-[Nle]EH[dF]R[Dab]K-NH2 (lactam 2-6; SMILES CCCC[C@H](NC(C)=O)C(=O)N[C@H]1CCC(=O)NCC[C@@H](C(=O)N[C@@H](CCCCN)C(N)=O)NC(=O)[C@H](CCCNC(=N)N)NC(=O)[C@@H](Cc2ccccc2)NC(=O)[C@H](Cc2c[nH]cn2)NC1=O) [Ac-Nle-cyclo(Glu-His-D-Phe-Arg-Dab)-Lys-NH2] and report it.
-- reply 91

-- ask Would you mind telling me what MC-1 Emax (average; cAMP HBL) value was observed for Ac-[Nle]EH[dF]A[Dab]W-NH2 (lactam 2-6; SMILES CCCC[C@H](NC(C)=O)C(=O)N[C@H]1CCC(=O)NCC[C@@H](C(=O)N[C@@H](Cc2c[nH]c3ccccc23)C(N)=O)NC(=O)[C@H](C)NC(=O)[C@@H](Cc2ccccc2)NC(=O)[C@H](Cc2c[nH]cn2)NC1=O) [Ac-Nle-cyclo(Glu-His-D-Phe-Ala-Dab)-Trp-NH2] ?
-- reply 72

-- ask Look up MC-1 Emax (average; cAMP HBL): Ac-[Nle]DH[dF]R[Dap]W-NH2 (lactam 2-6; SMILES CCCC[C@H](NC(C)=O)C(=O)N[C@H]1CC(=O)NC[C@@H](C(=O)N[C@@H](Cc2c[nH]c3ccccc23)C(N)=O)NC(=O)[C@H](CCCNC(=N)N)NC(=O)[C@@H](Cc2ccccc2)NC(=O)[C@H](Cc2c[nH]cn2)NC1=O) [Ac-Nle-cyclo(Asp-His-D-Phe-Arg-Dap)-Trp-NH2]
-- reply 88

-- ask Which MC-1 Emax (average; cAMP HBL) is reported for this binder? Ac-[Nle]EH[dF]R[Dab]A-NH2 (lactam 2-6) [Ac-Nle-cyclo(Glu-His-D-Phe-Arg-Dab)-Ala-NH2]
-- reply 97

-- ask Please give the measured MC-1 Emax (average; cAMP HBL) for this binder: Ac-[Nle]EH[dF]G[Dab]W-NH2 (lactam 2-6; SMILES CCCC[C@H](NC(C)=O)C(=O)N[C@H]1CCC(=O)NCC[C@@H](C(=O)N[C@@H](Cc2c[nH]c3ccccc23)C(N)=O)NC(=O)CNC(=O)[C@@H](Cc2ccccc2)NC(=O)[C@H](Cc2c[nH]cn2)NC1=O) [Ac-Nle-cyclo(Glu-His-D-Phe-Gly-Dab)-Trp-NH2]
-- reply 59
